B1: Osa-1-4 twister ribozyme (parent)
chain: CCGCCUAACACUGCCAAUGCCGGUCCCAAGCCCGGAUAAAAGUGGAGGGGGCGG

Variants of: B1
Assay: self-cleavage, relative activity (ratio to wild type); higher = more cleavage; co-transcriptional
Lab note: compare self-cleavage against 0.08. Equal or greater, write fulfilled. Smaller, write not fulfilled.

Query string: Confirm if self-cleavage reported for the variant CCGCCUAACCCUGCCAAUGCCGGUCCCAAGCCCGGAUAUAAGUGGAGGGGGCGG is 0.08 or above.
Result string: not fulfilled

Query string: Input CCGCCUAACAAUGCCAAUGCCGGUCCCAAGCCCGGAUAAAAGUGAAGGGGGCGG
Result string: not fulfilled

Query string: Input CCGCCUAACACUGCCAAGGCCGGUCCCAAGCCCGGAUUAAAGUGGAGGGGGCGG
Result string: fulfilled

Query string: Input CCGCCUAACGCUGCCAAUGCCGGUCCCAAGCCCGGAUAAAAGUGGUGGGGGCGG
Result string: fulfilled

Query string: Input CCGCCUAACACUGCCAAUGCCGGUCCCAGGCCCGGAUAAAAGUGGAGGGGGCCG
Result string: not fulfilled

Query string: Input CCGCCUAACACUGCCAAUGCCGGUCCCGAGCCCUGAUAAAAGUGGAGGGGGCGG
Result string: fulfilled

Query string: Input CCGCCUAACACUACCAAUGUCGGUCCCAAGCCCGGAUAAAAGUGGAGGGGGCGG
Result string: fulfilled

Query string: Input CCGCCUAACACUGCCAAAGCCGGUCCCAAGCGCGGAUAAAAGUGGAGGGGGCGG
Result string: fulfilled

Query string: Input CCGCCUAACACUGCCAAUGCCGGUCCCAAGCGCGGAUAAAAGUGGACGGGGCGG
Result string: not fulfilled

Query string: Input CCGCCUAACACUGCCAAUGCCGGUACCAAGCCCGGAUAAAAGUGGAGGGGGGGG
Result string: fulfilled
